Origin of the recorded values: patent US20050085554A1

Test system: Leishmania donovani
test-summary: Antileishmanial activity in vitro
Format: cell-based
measurement-parameters: T4
property-label: Leishmania donovani IC 50

// Leishmania donovani IC 50 lookup, compound = O=C1CCCN2[C@@H](CC1)C[C@]13CN4CCCC/C=C\CC[C@](O)(C=C(c5nccc6c5[nH]c5c(O)cccc56)C1CC4)[C@H]23 (stereo partly drawn) , result: 4.2 µg/mL

// Leishmania donovani IC 50 lookup, compound = `O[C@]12C=C(c3nccc4c3[nH]c3ccccc34)[C@@H]3CCN(CCCC/C=C\CC1)C[C@@]31C[C@@H]3/C=C\CCCCN3[C@H]12` , result: 0.9 µg/mL

// Leishmania donovani IC 50 lookup, compound = O=C1CCCN2[C@@H](CC1)C[C@]13CN4CCCC/C=C\CC[C@](O)(C=C(c5nccc6c5[nH]c5ccc(O)cc56)[C@@H]1CC4)[C@H]23 [6-Hydroxymanzamine E] , result: 2.5 µg/mL

// Leishmania donovani IC 50 lookup, compound = `O[C@]12C=C(c3nccc4c3[nH]c3ccccc34)[C@@H]3CCN(CCCC/C=C\CC1)C[C@@]31CC/C=C\CCCCN[C@H]12` , result: 25 µg/mL

// Leishmania donovani IC 50 lookup, compound = `Oc1ccc2[nH]c3c(C4=C[C@@]5(O)CC/C=C\CCCCN6CC[C@@H]4[C@@]4(C6)C[C@@]67CC[C@@H](CCCN6[C@H]45)O7)nccc3c2c1` , result: 5.7 µg/mL

// Leishmania donovani IC 50 lookup, compound = Oc1cccc2c1[nH]c1c(C3=C[C@@]4(O)CC/C=C\CCCCN5CCC3[C@]3(CC6/C=C\CCCCN6[C@H]34)C5)nccc12 (single isomer, unassigned; (+)) [(+)-8-Hydroxymanzamine A] , result: 6.2 µg/mL

// Leishmania donovani IC 50 lookup, compound = `O=C1CCCN2[C@@H](CC1)C[C@]13CN4CCCC/C=C\CC[C@](O)(C=C(c5nccc6c5[nH]c5ccccc56)[C@@H]1CC4)[C@H]23` , result: 3.8 µg/mL

// Leishmania donovani IC 50 lookup, compound = C[C@@H]1[C@H](O)[C@@H](C)/C=C/C=C/C=C/C=C/C=C/C=C/C=C/[C@H](O[C@@H]2O[C@H](C)[C@@H](O)[C@H](N)[C@@H]2O)C[C@@H]2O[C@](O)(C[C@@H](O)C[C@@H](O)[C@H](O)CC[C@@H](O)C[C@@H](O)CC(=O)O[C@H]1C)C[C@H](O)[C@H]2C(=O)O [Amphotericin B, reference compound] , result: 0.06 µg/mL

// Leishmania donovani IC 50 lookup, compound = O[C@]12C=C(c3nccc4c3[nH]c3ccccc34)C3CCN(CCCC/C=C\CC1)C[C@@]31C[C@]34CC[C@H](CCCN3[C@H]12)O4 (stereo partly drawn) , result: 3.2 µg/mL
